Assignment: determine reported cAMP accumulation EC50 for the given binders.
- tested system: human PTH-2 receptor (human, UniProt P49190 25-550)
- Sequence (P49190 25-550): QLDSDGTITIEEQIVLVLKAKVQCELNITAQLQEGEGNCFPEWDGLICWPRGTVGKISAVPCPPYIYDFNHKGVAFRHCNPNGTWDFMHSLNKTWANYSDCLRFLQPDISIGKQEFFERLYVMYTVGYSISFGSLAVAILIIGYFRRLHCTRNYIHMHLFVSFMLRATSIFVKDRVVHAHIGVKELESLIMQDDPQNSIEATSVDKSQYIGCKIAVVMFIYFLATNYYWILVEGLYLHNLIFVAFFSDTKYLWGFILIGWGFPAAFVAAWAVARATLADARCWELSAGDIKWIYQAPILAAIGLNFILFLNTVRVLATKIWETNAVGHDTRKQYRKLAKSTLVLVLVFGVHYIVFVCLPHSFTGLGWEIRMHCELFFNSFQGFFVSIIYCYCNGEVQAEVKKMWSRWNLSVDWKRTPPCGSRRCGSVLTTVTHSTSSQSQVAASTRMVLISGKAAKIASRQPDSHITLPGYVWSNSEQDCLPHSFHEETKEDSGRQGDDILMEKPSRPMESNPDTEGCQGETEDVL
- method summary: cell-based or functional assay
Where no end group is shown, it is not given here.

Data request: Tell me the measured cAMP accumulation EC50 of AVSEIQLLHDKGKSIQDLRRRFWLHHLIAEIHTAEY-NH2 (also called [Ile^5, Trp^23]PTHrP-(1-36); [Ile^5,Trp^32]PTHrP-(1-36) [sic]) [[I5, W23, Y36]hPTHrP-(1-36)NH2] , please.
Data returned: 0.5 nM

Data request: Likewise for SVSEHQLMHNLGKHLNSMERVEWLRKKLQDVHNY-NH2 [[H5, Y34]hPTH-(1-34)NH2] ?
Data returned: > 1000 nM

Data request: Cool, now AVSEHQLLHDKGKSIQDLERVEWLRKKLQDVHNY-NH2 (also: radioiodinated in direct binding test, Synthetic PTH/PTHrP hybrid ligand; also called radioiodinated hybrid-5 peptide) [Hybrid-5 hPTHrP-(1-18)/[Y34]hPTH-(19-34)NH2]
Data returned: > 1000 nM
